# Test system: CD2F1 mice, L1210 leukemia ip, survival T/C
# TEST METHOD NOTES: NCI In Vivo Anticancer Drug Screen. Data for tumor model L1210 Leukemia (intraperitoneal) in CD2F1 (CDF1) mice
# CONDITIONS USED: endpoint: median survival time; dose: 100.0 mg/kg/injection; schedule: Q01DX009 (ip); vehicle: saline with Tween-80
Toxic doses and inconclusive results are not listed. How the source made its calls: active means survival T/C of 150% or more; inactive means T/C below 125% in these data.
Output constraint: value belongs to active, inactive

Could you please tell me the result logged for `CC(=O)C[n+]1ccc(C)cc1Sc1ccccc1C` in this assay?
inactive

Could you please tell me the result logged for `CS(=O)(=O)CS(=O)(=O)OCCCl` in this assay?
active

Could you please tell me the result logged for CCCCCCCCC(=O)OCC1OC(n2cnc3c(N)nc(Cl)nc32)CC1O (centres undefined) in this assay?
inactive

Could you please tell me the result logged for CC1/C=C/C=C/CC/C=C/C=C/C=C/C=C/C(OC2OC(C)C(O)C(N)C2O)CC2OC(CC(O)C(O)CCC(O)CC(O)CC(O)CC(=O)OC(C)C(C)C1O)CC(O)C2C(=O)O (centres undefined) in this assay?
inactive
